Tested on: HIVs68Δ-23 (S68del virus isolated at week 23)
Test: 3H-TTP RT incorporation assay, drug susceptibility of in vitro-selected S68del virus in human PBM cells
Assay type: cell-based, HIV-1
Conditions: Human immunodeficiency virus 1, PBMC; HIVs68Δ-23 in human PBM cells; averages of 2-6 independent experiments
pEC50: −log10 of the molar value.
Decide using pEC50: a value greater than or equal to 7 is Satisfied, a smaller one is Not satisfied.

Tell me whether pEC50 is at least 7 here: Cc1cn([C@H]2C[C@H](N=[N+]=[N-])[C@@H](CO)O2)c(=O)[nH]c1=O
Satisfied

Is reported pEC50 greater than or equal to 7 here: Nc1nc(NC2CC2)c2ncn([C@H]3C=C[C@@H](CO)C3)c2n1.O=C(O)CCC(=O)O [Abacavir, succinate]
Not satisfied

Please check the record Cc1cccc(C)c1OCC(=O)N[C@@H](Cc1ccccc1)[C@@H](O)C[C@H](Cc1ccccc1)NC(=O)[C@H](C(C)C)N1CCCNC1=O and state if its pEC50 is at or above 7.
Satisfied

Is pEC50 at least 7? Consider OC[C@@H]1CC[C@H](n2cnc3c(O)ncnc32)O1
Not satisfied

Hi, just wondering whether Nc1ccn([C@H]2CC[C@@H](CO)O2)c(=O)n1 shows pEC50 of 7 or higher.
Not satisfied

Decide: pEC50 of CC(C)OC(=O)OCOP(=O)(CO[C@H](C)Cn1cnc2c(N)ncnc21)OCOC(=O)OC(C)C.O=C(O)/C=C/C(=O)O [TDF, fumarate] >= 7?
Not satisfied

Determine whether measured pEC50 meets or exceeds 7 for Nc1nc(=O)n([C@@H]2CS[C@H](CO)O2)cc1F (relative stereo) [(−)-FTC]
Not satisfied

====

Record form. Attribute: IC50. Fill in for each entry.
Molecular target: Recombinant S68del Reverse Transcriptase (Human immunodeficiency virus type 1 group M subtype B, UniProt P12497, DEL655-655)
Construct: The amplified PCR product comprising the RT of pNL4-3 was ligated into the linearized pQE60; inferred from the pQE60 vector and the in-frame BglII site of the reverse primer without a stop codon) (C)
Experiment: Heteropolymeric DNA polymerase RT assay in the absence of ATP, recombinant S68del RT
// return numeric value only (unit: nM, not printed)

Value of measured IC50 for the entry Cc1cn(C2CC(N=[N+]=[N-])C(COP(=O)(O)OP(=O)(O)OP(=O)(O)O)O2)c(=O)[nH]c1=O (stereo not drawn) : 700

What the record says about Nc1nc(=O)n(C2C=CC(COP(=O)(O)OP(=O)(O)OP(=O)(O)O)O2)cc1F (stereo not drawn) : IC50 is 1100

Item: Nc1nc(=O)n(C2CSC(COP(=O)(O)OP(=O)(O)OP(=O)(O)O)O2)cc1F (single isomer, unassigned; (-)) [(−)FTC-TP] | IC50: 27000

The measured values listed here are drawn from patent US9428815B2.
